# maps each entry to its polymerase ribozyme fitness (log ratio)
B1: TPR t1 (parent)
chain: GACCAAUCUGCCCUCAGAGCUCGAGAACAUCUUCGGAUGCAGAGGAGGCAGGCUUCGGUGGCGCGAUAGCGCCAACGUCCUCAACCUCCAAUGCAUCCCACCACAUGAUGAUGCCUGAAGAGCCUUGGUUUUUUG

variants of: B1; assay: polymerase ribozyme fitness, log enrichment relative to wild type (log ratio); higher = more active; in vitro selection for triplet polymerase activity
Returns: the value as a bare number; no unit string appended.

Consider the reported polymerase ribozyme fitness (log ratio) for these variants:
INPUT: Which polymerase ribozyme fitness (log ratio) reading was recorded for the variant GACCAAUCUGCCCUCAGAGCUCGAGAACAUCUUCGGAUGCAGAUGAGGCAGGCUUCGGUGGCGCGAUGGCGCCAACGUCCUCAAACUCCAAUGCAUCCCACCACAUGAUGAUGCCUGAAGAGCCUUGGUUUUUUG [G44U A68G C85A] ?
OUTPUT: -5.43

INPUT: Which polymerase ribozyme fitness (log ratio) reading was recorded for the variant GACCAAUCUGCCCUCAGAGCUCGAGAACAUCUUCGGAUGCAGAGGAGGCAGGGUUCGGUGGCGCGAUAGCGCCAACGUCCUCAACCUCCAAUGCAUCCCACCACAUGAUGAUGCCUGAAGAACCUUGGUUUUUUG [C53G G122A] ?
OUTPUT: -1.37

INPUT: Which polymerase ribozyme fitness (log ratio) reading was recorded for the variant GACCAAUCUGCCCUCAGAGCUCGAGAACAUCUUCGGAUGCAGAGGAGGCAGGCUUCGGUGGCGCGAUAGCGCCAACGUCCUCAACCUCCAAUGCAUCCCACCACAUGAUGAUUCCUGAAGAGCCUUGGUUUUUGG [G113U U134G] ?
OUTPUT: -1.78

INPUT: Which polymerase ribozyme fitness (log ratio) reading was recorded for the variant GACCAGUCUGCCCUCAGAGCUCGAGAACAUCUUCGGAUGCAGAGGAGGCAGGCUUCGGUGGCGCGAUAGCGGCAACGUCCUCAACCUUCAAUGCAUCCCACCACAUGAUGAUGCCUGAAGAGCCUUGGUUUUUUG [A6G C72G C88U] ?
OUTPUT: -0.419

INPUT: Which polymerase ribozyme fitness (log ratio) reading was recorded for the variant GACCAAUCUGCCCUCAGUGCUCGAGAACAUCUUCGGAUGCGGAGGAGGCAGGCUUCGGUGGCGCGAUAGCGCCAACGUCCUCAACCUCCAAUGCAUCCCACCACAAGAUGAUGCCUGAAGAGCGUUGGUUUUUUG [A18U A41G U106A C124G] ?
OUTPUT: -1.51

Continuing:
INPUT: Which polymerase ribozyme fitness (log ratio) reading was recorded for the variant GACGAAUCGGCCCUCAGAGCUCGAGAACAUCUUCGGAUGCGGAGGAGGCAGGCUUCGGUGGCGCGAUAGCGCCAACGUCCUCAACCUCCAAUGCAUCCCACCACAUGAUGAUGCCUGAAGAGCCUUGGUUUUUUG [C4G U9G A41G] ?
OUTPUT: -1.21

INPUT: Which polymerase ribozyme fitness (log ratio) reading was recorded for the variant GACCUAUCUGGCCUCAGAGCUCGAGAACAUCUUCGGAUGCAGAGGAGGCAGGCUUCGGUGGCGUGAUAGCGCCAACGCCCUCAACCUCCAAUGCAUCCCACCACAUGAUGAUGCCUGAAGAGCCUCGGUUUUUUG [A5U C11G C64U U78C U126C] ?
OUTPUT: -0.928

INPUT: Which polymerase ribozyme fitness (log ratio) reading was recorded for the variant GACCAAUCUGCCCGCAGAGCUCGAGAACAUCUUCGGAUGCAGAGGAGGCAGGCAUCGGUGCCGCGAUAGCGCCAACGUCCUCAACCUCCAAUGCAUCCCACCACAUGAUGAUGCCUGAAGAGCCUUGGUUUUUUG [U14G U54A G61C] ?
OUTPUT: -2.7

INPUT: Which polymerase ribozyme fitness (log ratio) reading was recorded for the variant GACCAAUGUGCCCUCAGAGCUCGAGAACAUCUUCGGAUGCAGAGGAGGCAGGCUUCGGUGGCGCGAUAGCGCCAACGUCCUCAACCUCCAAUGCAUCCCACCACAUGAUGAUGCCUCAAGAGCCUUGGUUUUUUG [C8G G117C] ?
OUTPUT: -0.943

INPUT: Which polymerase ribozyme fitness (log ratio) reading was recorded for the variant GACCAAUCUGCCCUCAGAGGUCGAGAACAUCUUCGGAUGCAGAGGAAGCAGGCUUCUGUGGCGCGAUAGCGCCAACGUCCUCAACCUCCAAUGCAUCCCACCACAUGAUGAUGCCUGAAGAGCCUUGGUUUUUUG [C20G G47A G57U] ?
OUTPUT: -5.83

meta.source: the RNAGym collection of RNA variant scans (doi:10.1073/pnas.2313332121)
